# Protocol Description: Solubility of the active ingredients in liquid solutions (Liquids 1-5)
# Format: physicochemical
# Protocol Conditions: aqueous with cosolvent or surfactant or cyclodextrin, Liquid 3: water 25, ethanol 30, glycerol 15, propylene glycol 25, polysorbate 80 5 % v/v; read-out: Solubility in Liquid 3
Listed here are compounds together with their documented solubility.
Express it in mg/mL; write the number only.

Enquiry: Provide solubility value for the following compound: C#C[C@]1(O)CC[C@H]2[C@@H]3CCC4=CCCC[C@@H]4[C@H]3C(=C)C[C@@]21CC [Desogestrel]
Return: 13.4

Enquiry: Please give the documented solubility of C#C[C@]1(O)CC[C@H]2[C@@H]3CCC4=CC(=O)CC[C@@H]4[C@H]3C(=C)C[C@@]21CC [Etonogestrel]
Return: 7.3

###

# Protocol Description: Solubility of the active ingredients in liquid solutions (Liquids 1-5)
# Format: physicochemical
# Protocol Conditions: aqueous with cosolvent or surfactant or cyclodextrin, Liquid 5: water 30, ethanol 30, glycerol 25, propylene glycol 15, polysorbate 80 0 % v/v; read-out: Solubility in Liquid 5
# Protocol: Solutions were prepared essentially according to the procedure as described in Example 1. The solubility of each one of the active ingredients desogestrel, 3-β-hydroxydesogestrel, 3-keto desogestrel and ethinyl estradiol in these solutions was tested.
Value Type: solubility (µg/mL)
Provide the reading as a plain figure in µg/mL.

Take a look at these entries with their results.
1. C#C[C@]1(O)CC[C@H]2[C@@H]3CCC4=CC(=O)CC[C@@H]4[C@H]3C(=C)C[C@@]21CC [Etonogestrel]; 3400
2. C#C[C@]1(O)CC[C@H]2[C@@H]3CCC4=CCCC[C@@H]4[C@H]3C(=C)C[C@@]21CC [Desogestrel]; 1500

Shifting focus to the compound that follows.
Enquiry: For the compound C#C[C@]1(O)CC[C@H]2[C@@H]3CCc4cc(O)ccc4[C@H]3CC[C@@]21C [Ethinyl Estradiol] , give its measured solubility value.
Return: 12400

###

# Protocol Description: Solubility of the active ingredients in liquid solutions (Liquids 1-5)
# Assay type: physicochemical
# Protocol Conditions: aqueous with cosolvent or surfactant or cyclodextrin, Liquid 1: water 25, ethanol 20, glycerol 25, propylene glycol 25, polysorbate 80 5 % v/v; read-out: Solubility in Liquid 1
Value Type: solubility (mg/mL)
Supply the numeric figure in mg/mL, leaving out any unit text.

Enquiry: Name the recorded solubility of the item C#C[C@]1(O)CC[C@H]2[C@@H]3CCC4=CC(=O)CC[C@@H]4[C@H]3C(=C)C[C@@]21CC [Etonogestrel] in your answer.
Return: 5.5

Enquiry: Quickly give me recorded solubility for C#C[C@]1(O)CC[C@H]2[C@@H]3CCC4=CCCC[C@@H]4[C@H]3C(=C)C[C@@]21CC [Desogestrel]
Return: 11.3
